Recorded OD450 for the following binders
# targetSystem: T1, murine CD22 protein (ACROBiosystems, SI2-M52Ha) (murine, UniProt P35329 22-708)
# T1 construct: extracellular domain; also called murine CD22-ECD; murine CD22-ECD-His
# T1 sequence (looked up): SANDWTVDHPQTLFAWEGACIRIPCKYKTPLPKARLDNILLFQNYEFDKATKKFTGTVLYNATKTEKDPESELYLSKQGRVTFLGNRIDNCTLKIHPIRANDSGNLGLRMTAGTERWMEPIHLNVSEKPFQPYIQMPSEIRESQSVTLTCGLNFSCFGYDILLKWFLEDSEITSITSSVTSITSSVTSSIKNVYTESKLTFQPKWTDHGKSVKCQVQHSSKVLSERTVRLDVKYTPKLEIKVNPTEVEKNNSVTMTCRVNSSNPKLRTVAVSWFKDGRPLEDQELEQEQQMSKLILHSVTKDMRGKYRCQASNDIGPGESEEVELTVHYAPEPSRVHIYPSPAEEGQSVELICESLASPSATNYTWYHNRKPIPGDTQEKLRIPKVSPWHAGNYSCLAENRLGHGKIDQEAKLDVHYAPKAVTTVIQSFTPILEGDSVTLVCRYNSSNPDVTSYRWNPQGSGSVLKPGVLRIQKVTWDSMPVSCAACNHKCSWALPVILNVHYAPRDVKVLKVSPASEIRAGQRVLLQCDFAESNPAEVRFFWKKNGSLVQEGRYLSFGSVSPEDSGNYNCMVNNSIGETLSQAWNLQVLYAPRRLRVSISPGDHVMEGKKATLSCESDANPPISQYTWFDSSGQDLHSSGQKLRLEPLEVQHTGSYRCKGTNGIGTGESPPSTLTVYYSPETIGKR
# protocolDescription: ELISA, coated murine CD22, 0.01 nM Ab

binder	readoutUnit	OD450
F1.267.9 human-murine chimeric antibody (antibody, human IgG1, kappa, V domains shown, Chimeric, human IgG1 / kappa; VL tied by name) VH: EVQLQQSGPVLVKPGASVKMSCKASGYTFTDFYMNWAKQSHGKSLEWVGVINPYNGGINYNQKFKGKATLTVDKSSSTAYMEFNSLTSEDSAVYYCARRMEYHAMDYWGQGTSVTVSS VL: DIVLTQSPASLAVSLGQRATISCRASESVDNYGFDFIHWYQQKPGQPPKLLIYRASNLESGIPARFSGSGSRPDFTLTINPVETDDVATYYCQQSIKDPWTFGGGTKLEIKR	OD450	0.06
F2.127.11 human-murine chimeric antibody (antibody, human IgG1, lambda, V domains shown, Chimeric, human IgG1 / lambda; VL tied by name) VH: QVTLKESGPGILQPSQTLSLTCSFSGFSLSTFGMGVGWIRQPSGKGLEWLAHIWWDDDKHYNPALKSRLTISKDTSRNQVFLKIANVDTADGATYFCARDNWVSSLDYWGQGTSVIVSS VL: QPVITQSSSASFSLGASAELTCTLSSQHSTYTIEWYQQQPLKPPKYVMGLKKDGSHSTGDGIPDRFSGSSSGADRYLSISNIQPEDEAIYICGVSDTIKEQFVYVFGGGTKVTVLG	OD450	0.05
F1.172.13 human-murine chimeric antibody (antibody, human IgG1, kappa, V domains shown, Chimeric, human IgG1 / kappa) VH: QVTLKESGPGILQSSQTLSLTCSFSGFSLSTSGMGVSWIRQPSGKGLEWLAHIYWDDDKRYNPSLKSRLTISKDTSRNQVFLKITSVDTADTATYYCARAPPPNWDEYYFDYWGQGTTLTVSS VL: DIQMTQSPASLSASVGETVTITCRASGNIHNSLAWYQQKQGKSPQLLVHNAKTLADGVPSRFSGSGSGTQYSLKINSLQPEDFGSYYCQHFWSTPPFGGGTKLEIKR	OD450	0.05
F1.120.15 human-murine chimeric antibody (antibody, human IgG1, kappa, V domains shown, Chimeric, human IgG1 / kappa) VH: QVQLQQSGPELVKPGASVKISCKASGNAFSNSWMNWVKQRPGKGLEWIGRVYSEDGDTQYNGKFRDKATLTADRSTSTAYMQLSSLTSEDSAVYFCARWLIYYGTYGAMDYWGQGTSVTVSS VL: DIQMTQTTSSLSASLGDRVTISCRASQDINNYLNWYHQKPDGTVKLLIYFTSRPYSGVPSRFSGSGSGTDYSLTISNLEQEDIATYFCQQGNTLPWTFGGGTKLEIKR	OD450	0.05
F1.224.1 human-murine chimeric antibody (antibody, human IgG1, kappa, V domains shown, Chimeric, human IgG1 / kappa; VL tied by name) VH: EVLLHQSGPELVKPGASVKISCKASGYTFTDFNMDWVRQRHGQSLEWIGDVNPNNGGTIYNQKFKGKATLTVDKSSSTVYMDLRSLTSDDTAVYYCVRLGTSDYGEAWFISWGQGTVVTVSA VL: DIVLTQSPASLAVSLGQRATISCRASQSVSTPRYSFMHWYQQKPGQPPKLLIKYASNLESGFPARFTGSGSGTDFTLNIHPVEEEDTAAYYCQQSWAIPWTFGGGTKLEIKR	OD450	0.06
F1.62.10 human-murine chimeric antibody (antibody, human IgG1, kappa, V domains shown, Chimeric, human IgG1 / kappa) VH: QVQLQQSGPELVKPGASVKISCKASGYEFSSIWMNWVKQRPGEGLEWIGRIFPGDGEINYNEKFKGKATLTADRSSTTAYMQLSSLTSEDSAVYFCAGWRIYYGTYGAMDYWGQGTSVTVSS VL: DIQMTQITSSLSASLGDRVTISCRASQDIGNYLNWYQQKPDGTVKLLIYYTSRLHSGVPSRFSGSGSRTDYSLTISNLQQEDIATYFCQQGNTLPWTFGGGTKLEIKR	OD450	0.05
m971-hIgG1 (antibody, V domains shown, Positive control anti-human CD22 antibody; V regions from US 8,591,889 B on human IgG1 constant regions) VH: QVQLQQSGPGLVKPSQTLSLTCAISGDSVSSNSAAWNWIRQSPSRGLEWLGRTYYRSKWYNDYAVSVKSRITINPDTSKNQFSLQLNSVTPEDTAVYYCAREVTGDLEDAFDIWGQGTMVTVSS VL: DIQMTQSPSSLSASVGDRVTITCRASQTIWSYLNWYQQRPGKAPNLLIYAASSLQSGVPSRFSGRGSGTDFTLTISSLQAEDFATYYCQQSYSIPQTFGQGTKLEIKR	OD450	0.07
